Hello, the source for this data is the supplement of paper PMC9170038, in case you need it.

# Tested on: MS2 coat protein
# EXPERIMENTAL DETAILS: apparent KD of MS2 coat protein; designed switch direction (-1 OFF switch, 1 ON switch): -1; higher = weaker reporter binding
# STATED CONDITIONS: input ligand: FMN 200 uM
MEASURE: apparent KD of MS2 coat protein
Remember to follow the number with its unit.

IN: Consider the sequence GGAUUCCAGUGAGGAUAUCCAAAUAAAAGCCAUGGAGAAGGCACAUGAGGAUCACCCAUGUAGGGCAAUAGCAGCGACCGCUGC [Usxeer] (Eterna round: R96, puzzle: Exclusion NG 1) and give its recorded apparent KD of MS2 coat protein.
OUT: 60.8 nM

IN: Consider the sequence CCCUCAUGACGCACAUGAGGAUCACCCAUGUAUAAACCGUCAGAGGAUAUCCGCCGGUCACCGAAGGAGAAGGCUGACCUAAAG [Quinlaan] (Eterna round: R96, puzzle: Exclusion NG 3) and give its recorded apparent KD of MS2 coat protein.
OUT: 21.2 nM

IN: Consider the sequence CCCGUCGAUGUAGGAUAUGCCCGGGUCUCCCGGGCAGAAGGACAUGAGGAUCACCCAUGUUCAUGAGGAUCACCCAUGAAUGGG [Double but mutated MS2] (Eterna round: R96, puzzle: Exclusion NG 1) and give its recorded apparent KD of MS2 coat protein.
OUT: 12.1 nM

IN: Consider the sequence UUUACAAGCUUAAGAUCCCACAUGAGGAUCACCCAUGUUGCUGCCGUGAGGUAGCUUUUAACUUAUGCUCGUCUUAU [JL TOV1 3.42] (Eterna round: R97, puzzle: Sensor, turn-off variant 1) and give its recorded apparent KD of MS2 coat protein.
OUT: 94 nM

IN: Consider the sequence UUAAUAGCAGCGAGAUCCCACAUGAGGAUCACCCAUGUCGUAGACGAAAAGUCUACGUUAGCUCGUCUUAUAAAUAU [Winner reversed engineered 39] (Eterna round: R97, puzzle: Sensor, turn-off variant 1) and give its recorded apparent KD of MS2 coat protein.
OUT: 95.1 nM

IN: Consider the sequence GGUUGUCGAGGAUAUACUAGGGACCGAUCGAUCGGAACUUCACAUGAGGAUCACCCAUGUAGAAGGCGACAAUC [Eternabot (L1) Solution 57] (Eterna round: R97, puzzle: Exclusion 2) and give its recorded apparent KD of MS2 coat protein.
OUT: 116 nM

IN: Consider the sequence GAGUGCUAAGGAUAUACAUGAGGAUCACCCAUGUGCUUCAGCUAGGAGACUAGCAUUGGUAGAAGGUAGUACUC [Mod of lroppy 2 - Jieux - Exclusion 3] (Eterna round: R97, puzzle: Exclusion 3) and give its recorded apparent KD of MS2 coat protein.
OUT: 60.3 nM

IN: Consider the sequence ACUAGAUGAGGAUAUGCACAUUUUAGUGUUCCUCUAGAUUAACAUGAGGAUCACCCAUGUAGAAGGCGUCAUUU [Exclusion 2 - 13] (Eterna round: R96, puzzle: Exclusion 2) and give its recorded apparent KD of MS2 coat protein.
OUT: 119 nM

IN: Consider the sequence GGAGGACGAGCAGGAUAUUUUCACAUGAGGAUCACCCAUGUGUACUCAGGGUAAUCCUCCGCCGAAAAGAAGGGUUCGGAAGAA [JL ViennaUCT Socedi mod 1] (Eterna round: R96, puzzle: Exclusion NG 2) and give its recorded apparent KD of MS2 coat protein.
OUT: 46.7 nM

---

# System: K4 kissing-loop RNA reporter
# EXPERIMENTAL DETAILS: apparent KD of K4 kissing-loop reporter; higher = weaker reporter binding
# STATED CONDITIONS: Eterna round: R107; input ligand: theophylline 20 uM
So I've got a bunch of sequences here, and I need their apparent KD of K4 kissing-loop reporter values.
# number only, unit µM dropped from output

IN: Consider the sequence "GCCGUAGAUGGAAGGAGCGUGUCAAAGUGAUGUUUUGAUUAACUCCCUUAGGGAAAGAUGGCACAGGUAGGUCGCCAUCUACGGC" and give its recorded apparent KD of K4 kissing-loop reporter.
OUT: 0.131

IN: Consider the sequence "UGACUGGACUGAAGGAGCGGGCGAGACAAAGUCUCGAACUCGUAGUGAUGUUACGAAAUAACCCAGGUAGGUCGCAGUCUAGUCU" and give its recorded apparent KD of K4 kissing-loop reporter.
OUT: 0.0672

IN: Consider the sequence UGUAUGUGAUUUGAUACCAGACCAGUUGGUGGUAUAUGAGUGAUGUUUAUGUUGGUUUGGGUCCCUUGGCAGCAAAUCGCAUACU [KL-SSTheoB11] and give its recorded apparent KD of K4 kissing-loop reporter.
OUT: 0.356

---

# Test system: K4 kissing-loop RNA reporter
# EXPERIMENTAL DETAILS: apparent KD of K4 kissing-loop reporter; higher = weaker reporter binding
# STATED CONDITIONS: Eterna round: R107; input ligand: FMN 200 uM
MEASURE: apparent KD of K4 kissing-loop reporter (µM)
# number only, unit µM dropped from output

IN: Consider the sequence "GCCCGAAAGGGCCGAUGUGUUUGCGGCGAUCGAGGACCGGUACGGCCGCCACUCGUCGAGGCGUUCAGUGAUGUUGAAAGCAUUA" and give its recorded apparent KD of K4 kissing-loop reporter.
OUT: 0.334

IN: Consider the sequence CGGAGUGAUGUUCCGUUAAUUCCUUAGUUACGAGGACCGGUACGGCCGCCACUCGAUUUUAGUUUUAUUUAUUGUUUGGAAAUUU [JR_SSTryptoA_Sub008] and give its recorded apparent KD of K4 kissing-loop reporter.
OUT: 0.253

IN: Consider the sequence "GCAUCCAUGGCAGGAUAUAGGUUCAUGGAGUGAUGUUCCAUAACCCGAGUGAUGUUCGUUAUCCACCUAGAAGGGCCAUGGAUGC" and give its recorded apparent KD of K4 kissing-loop reporter.
OUT: 0.208

IN: Consider the sequence GAGAUAGAGGCGGCCGCCACUAGUGAUGUUAGUGAUGUUAGAUAGAGAAUAGAACAGAGGUAGGAUAGGACCGGGCCAGAUAGAG [whbob_SS_Tryp_B_w31] and give its recorded apparent KD of K4 kissing-loop reporter.
OUT: 0.0906

IN: Consider the sequence ACUUGAGCACAAAGCACACCAAGCAGUAGGUAGGAUAUCCGGCUUAGGAGAAGGACCAUGCAGUGAUGUUGCAUGCUCCUCCAUG [Onraordi] and give its recorded apparent KD of K4 kissing-loop reporter.
OUT: 0.267

IN: Consider the sequence AUGCCUCUGGCUGAUACCAGUGAUGCAGGGUAUGAGACAGGGAGUGAUGUUCCCUGCAGCCACCCUUGGCAGCAGUUUAAGUUUG [Exclusion Theophylline B GF 20] and give its recorded apparent KD of K4 kissing-loop reporter.
OUT: 0.184

IN: Consider the sequence AGUUUAUAGGAGGAUACCAGUACGGAUAAGGUACGUUAAUAGUAGAGUGAUGUUCUAAAGUACCCUUGGCAGCUUAGAUUGAGUU [#27 K4 Theophylline B Exclusion] and give its recorded apparent KD of K4 kissing-loop reporter.
OUT: 0.11

IN: Consider the sequence GCGCGCGUUUUAGAUACCAGCCAGUGAUGUUGGCGAGGAUUCUGGAGCGUAGUGUCAAAUGGCCCUUGGCAGCUAACACGCGGCU [Zabea] and give its recorded apparent KD of K4 kissing-loop reporter.
OUT: 0.117

---

# Test system: K4 kissing-loop RNA reporter;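 further: bound reporter read as fluorescence of individual clusters on recovered sequencing chips by microscopy, with normalized cluster intensities fitted with a binding model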
# EXPERIMENTAL DETAILS: apparent KD of K4 kissing-loop reporter; higher = weaker reporter binding
# STATED CONDITIONS: Eterna round: R107; input ligand: none
So I've got a bunch of sequences here, and I need their apparent KD of K4 kissing-loop reporter values.
Remember to follow the number with its unit.

IN: Consider the sequence UGUAUGUGAUUUGAUACCAGACCAUCUUGUGAGAAAUGAGUGAUGUUUAUUUUGGUUUGGGUCCCUUGGCAGCAAAUCGCAUACU [KL-SSTheoB24] and give its recorded apparent KD of K4 kissing-loop reporter.
OUT: 505 nM

IN: Consider the sequence GGAGUUACCUGGGAUACCAGUCGGAGUCUCAGAGCACAGAGUGAUGUUCUGGGAUGUUUCGGCCCUUGGCAGCUCUGGGACUCCA [#2 Exclusion - Theophylline B Attempt #14 (HarryS)] and give its recorded apparent KD of K4 kissing-loop reporter.
OUT: 403 nM

IN: Consider the sequence AAUGAUCGUAUGGCGAGGUACUCGUGUUCGAAGGAUAUUAAUAGAAUAAGAAGGUCGAAAUCGUGUCUGGAAGUGAUGUUUCCAU [theeternabot_sameState_KL_FMN_A_32] and give its recorded apparent KD of K4 kissing-loop reporter.
OUT: 106 nM

IN: Consider the sequence "GCCGUAGAUUGAAGGAGCGUGGAACUAUGGCUUGAACAGUGAUGUUGUUUAUCUAGGUAGCCACAGGUAGGUCGCAAUCUACGGC" and give its recorded apparent KD of K4 kissing-loop reporter.
OUT: 234 nM

IN: Consider the sequence GCGCGGGAGUGAUGUUCCAAGUGGUGUUAACGAGGACCGGUACGGCCGCCACUCGAUACGGCCGGGCCGUAGGAUAAACUGGCGC [Same State - Tryptophan A (Freestyle 14)] and give its recorded apparent KD of K4 kissing-loop reporter.
OUT: 441 nM

IN: Consider the sequence UAGUCCUAGUGAUGGUCAUCACGUGGUGGGCGAGGACCGGUACGGCCGCCACUCGACUUUGCAGUGAUGUUGCAAACCGGACAAU [Exclusion - Tryptophan A (Freestyle 19)] and give its recorded apparent KD of K4 kissing-loop reporter.
OUT: 311 nM
